All figures here come from PubChem BioAssay (NCATS).

- measurement-protocol: qHTS of Nrf2 Activators: LOPAC Validation (AID 624149)
- condition-parameters: Nrf2/ARE reporter cell assay; series mostly up to 46.1 µM
Calls of active or inactive are those of the source. Calls follow the shape of the dose curve; as a rule, active = well fitted curve in the direction sought with a large enough effect; inconclusive = small, poorly fitted or top-dose-only effect, or effect the other way, or another doubt; inactive = no such curve, though single readings can be large or run the other way.
Classes used: 1 (yes) for active, 0 (no) for inactive

compound: COc1cc(C(O)C(=O)O)ccc1O (stereo unspecified)
class: 0 (no)
//
compound: O=C(O)c1cc(=O)cc(C(=O)O)[nH]1
class: 0 (no)
//
compound: COc1ccc(-c2ccc(N)[n+](CCCC(=O)O)n2)cc1
class: 0 (no)
//
compound: OC[C@H]1O[C@@H](n2cnc3cncnc32)[C@H](O)[C@@H]1O
class: 0 (no)
//
compound: NCCCCN
class: 0 (no)
//
compound: CC(N)(Cc1ccc(O)c(O)c1)C(=O)O (stereo unspecified)
class: 0 (no)
//
compound: Cn1cc(C(F)(F)F)nc1-c1ccc(OCC(O)CNCCOc2ccc(O)c(C(N)=O)c2)cc1 (stereo unspecified)
class: 0 (no)
//
compound: O=c1[nH]c2ccccc2c2ccccc12
class: 0 (no)
//
compound: C[C@@]1(C2CCCC2)Cc2cc(OCC(=O)O)c(Cl)c(Cl)c2C1=O
class: 0 (no)
//
compound: CN1CCN(c2nc3cc(C(F)(F)F)ccc3n3cccc23)CC1
class: 0 (no)
//
compound: C=CC1(C)CC(=O)C2(O)C(C)(O1)C(OC(C)=O)C(O)C1C(C)(C)CCC(O)C12C (stereo unspecified)
class: 0 (no)
//
compound: Nc1nc2ccc(Cl)cc2c2nc(-c3ccco3)nn12
class: 1 (yes)
//
compound: CC1C(=O)N(C)C(=O)c2nc[nH]c21 (stereo unspecified)
class: 0 (no)
//
compound: Nc1ncnc2c1nc(Br)n2C1OC2COP(=O)(O)O[C@@H]2C1O (stereo partly specified)
class: 0 (no)
//
compound: CNc1cc(NS(=O)(=O)c2ccc(N)cc2)nc(NC)n1
class: 0 (no)
//
compound: CC[C@H](NC(=O)c1c(C)c(-c2ccccc2)nc2ccccc12)c1ccccc1
class: 0 (no)
//
compound: Nn1nnc2ccccc21
class: 0 (no)
//
compound: C/C(=C\c1ccc(C(=O)O)cc1)c1ccc2c(c1)C(C)(C)CCC2(C)C
class: 0 (no)
//
compound: O=c1onc2cnc3ccccc3n12
class: 0 (no)
//
compound: Cn1c(=O)[nH]c2ncn(C)c2c1=O
class: 0 (no)
//
compound: NC(=O)CNCCC(c1ccccc1)c1ccccc1
class: 0 (no)
//
compound: NC(=Nc1ccccc1)NC(=O)c1nc(Cl)c(N)nc1N
class: 0 (no)
//
compound: C=CCNc1ncnc2ccc(Br)cc12
class: 0 (no)
//
compound: CCCN(CCc1ccccc1)C1CCc2c(O)cccc2C1 (stereo unspecified)
class: 0 (no)
//
compound: CSC(N)=NCCC[C@H](N)C(=O)O
class: 0 (no)
//
compound: CN1CC(O)C(O)C(O)C1CO (stereo unspecified)
class: 0 (no)

###

- measurement-protocol: qHTS Assay for Lipid Storage Modulators (AID 1519)
- condition-parameters: Drosophila S3 cells, BODIPY lipid droplet/cell ratio, laser cytometry; measured here: cell count channel max response; cells loaded with oleic acid
Records with an inconclusive call do not appear.
property: max response

compound: NC(N)=[N+]1CCc2ccccc2C1
property: max response
result: 6.74%

compound: CCN1C(=O)C=CC1=O
property: max response
result: -19.7%

compound: N[C@@H](CCC(=O)N[C@H](CSN=O)C(=O)NCC(=O)O)C(=O)O
property: max response
result: -20.1%

compound: C[C@@H](NCCc1ccc(O)cc1)[C@@H](O)c1ccc(O)cc1
property: max response
result: -16.7%

compound: O=C(O)c1cccnc1C(=O)O
property: max response
result: 9.96%

compound: NOCC(=O)O
property: max response
result: -5.32%

compound: Oc1cc(O)c2c(c1)O[C@H](c1ccc(O)c(O)c1)[C@@H](O)C2
property: max response
result: -12.7%

compound: N=C(N)SCCc1cnc[nH]1
property: max response
result: 1.98%

compound: NC(C(=O)N[C@@H]1C(=O)N2C(C(=O)O)=C(Cl)CS[C@H]12)c1ccccc1 (stereo partly drawn)
property: max response
result: -29.4%

compound: CC(C)NC[C@H](O)COc1ccc(CC(N)=O)cc1
property: max response
result: -3.12% [middle of 4 runs]

compound: O=C(O)Cc1ccc(O)c(O)c1
property: max response
result: -16.6%

compound: CC(C)NC[C@H](O)COc1cccc2ccccc12
property: max response
result: 19.6%

compound: Nc1ccc(-c2nc3ccc(-c4nc5ccc(N)cc5[nH]4)cc3[nH]2)cc1
property: max response
result: -29.1%
